Reference source for all entries: patent US11713338B2

Molecular target: integrin α4β1 (RAMOS human cells adhering to VCAM-1) (Homo sapiens, UniProt P05556+P13612)
Construct: Ramos cells, which express integrin α4β1; host or cells: RAMOS
Sequence (P13612 34-1032): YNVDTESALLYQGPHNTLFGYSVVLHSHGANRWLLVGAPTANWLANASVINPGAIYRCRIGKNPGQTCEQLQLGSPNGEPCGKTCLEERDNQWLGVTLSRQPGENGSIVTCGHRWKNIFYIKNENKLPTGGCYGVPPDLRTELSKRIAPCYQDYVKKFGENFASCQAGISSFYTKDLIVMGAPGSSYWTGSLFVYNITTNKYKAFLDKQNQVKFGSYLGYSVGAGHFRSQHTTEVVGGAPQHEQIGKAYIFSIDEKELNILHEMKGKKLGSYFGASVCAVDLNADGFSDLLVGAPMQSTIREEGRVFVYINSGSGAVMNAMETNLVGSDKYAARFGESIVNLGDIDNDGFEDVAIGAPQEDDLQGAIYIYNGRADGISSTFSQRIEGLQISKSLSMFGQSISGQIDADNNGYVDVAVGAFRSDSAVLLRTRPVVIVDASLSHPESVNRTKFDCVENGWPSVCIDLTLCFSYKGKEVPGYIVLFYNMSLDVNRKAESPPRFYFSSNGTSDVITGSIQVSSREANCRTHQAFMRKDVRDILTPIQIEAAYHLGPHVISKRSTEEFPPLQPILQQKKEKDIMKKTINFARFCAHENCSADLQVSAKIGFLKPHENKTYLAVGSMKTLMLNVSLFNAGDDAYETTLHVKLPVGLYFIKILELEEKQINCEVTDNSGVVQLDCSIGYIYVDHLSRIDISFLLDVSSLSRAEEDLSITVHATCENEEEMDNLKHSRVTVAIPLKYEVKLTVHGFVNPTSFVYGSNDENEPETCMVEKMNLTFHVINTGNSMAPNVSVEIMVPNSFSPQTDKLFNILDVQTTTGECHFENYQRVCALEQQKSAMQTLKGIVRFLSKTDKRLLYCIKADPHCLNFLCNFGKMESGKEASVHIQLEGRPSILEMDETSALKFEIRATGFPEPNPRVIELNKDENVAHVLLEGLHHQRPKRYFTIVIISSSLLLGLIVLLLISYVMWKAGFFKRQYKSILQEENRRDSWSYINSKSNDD
Sequence (P05556 21-798): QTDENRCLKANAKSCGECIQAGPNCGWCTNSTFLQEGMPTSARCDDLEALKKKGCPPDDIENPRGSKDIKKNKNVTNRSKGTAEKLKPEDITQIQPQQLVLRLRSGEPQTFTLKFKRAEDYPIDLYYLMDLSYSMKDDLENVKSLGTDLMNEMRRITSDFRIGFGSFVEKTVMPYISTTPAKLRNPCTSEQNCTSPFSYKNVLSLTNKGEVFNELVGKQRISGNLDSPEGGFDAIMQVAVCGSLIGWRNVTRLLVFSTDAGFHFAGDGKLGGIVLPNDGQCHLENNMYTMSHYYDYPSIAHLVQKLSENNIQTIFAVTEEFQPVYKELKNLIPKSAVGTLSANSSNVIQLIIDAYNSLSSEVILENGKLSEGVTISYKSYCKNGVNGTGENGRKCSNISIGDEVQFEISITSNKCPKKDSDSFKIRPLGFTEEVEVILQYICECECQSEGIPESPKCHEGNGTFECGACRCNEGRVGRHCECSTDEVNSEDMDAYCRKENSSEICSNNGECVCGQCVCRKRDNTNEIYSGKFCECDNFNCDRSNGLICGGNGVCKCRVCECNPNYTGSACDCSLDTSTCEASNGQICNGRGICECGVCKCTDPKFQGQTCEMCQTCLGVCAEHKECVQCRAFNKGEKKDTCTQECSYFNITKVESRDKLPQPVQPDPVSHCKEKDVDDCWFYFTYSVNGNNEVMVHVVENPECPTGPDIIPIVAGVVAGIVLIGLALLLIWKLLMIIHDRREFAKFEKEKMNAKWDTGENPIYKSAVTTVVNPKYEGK
Assay: Integrin α4β1-VCAM cell adhesion assay (RAMOS cells)
Assay type: cell-based
Conditions: Ramos cells adhering to VCAM; read-out: Ramos Adhesion α4β1/VCAM IC50
Quick rule for you: IC50 under 1000 nM gets t, anything else gets f.

mol_smiles=CC(C)C[C@@H]1NC(=O)c2ccc(-c3ccc(N4CCN(C(=O)[C@H](CCCCNC(=O)CCCCCC(=O)NCCCC[C@H](NC(=O)OCc5ccccc5)C(=O)N5CCN(c6ccc(-c7ccc8cc7CNC(=O)[C@@H]7CCCN7[C@H](C(=O)NC(C)(C)C)[C@H](C)NC(=O)[C@H]([C@@H](C)O)NC(=O)[C@H](CC(=O)O)NC(=O)[C@H](CC(C)C)NC8=O)cc6)CC5)NC(=O)OCc5ccccc5)CC4)cc3)c(c2)CNC(=O)[C@@H]2CCCN2[C@H](C(=O)NC(C)(C)C)[C@H](C)NC(=O)[C@H]([C@@H](C)O)NC(=O)[C@H](CC(=O)O)NC1=O assigned_label=f
mol_smiles=CC(C)C[C@@H]1NC(=O)c2ccc(-c3ccc(N4CCN(C(=O)c5ccc(-c6cccc(C(=O)N7CCN(c8ccc(-c9ccc%10cc9CNC(=O)[C@@H]9CCCN9[C@H](C(=O)NC(C)(C)C)[C@H](C)NC(=O)[C@H]([C@@H](C)O)NC(=O)[C@H](CC(=O)O)NC(=O)[C@H](CC(C)C)NC%10=O)cc8)CC7)n6)nc5)CC4)cc3)c(c2)CNC(=O)[C@@H]2CCCN2[C@H](C(=O)NC(C)(C)C)[C@H](C)NC(=O)[C@H]([C@@H](C)O)NC(=O)[C@H](CC(=O)O)NC1=O assigned_label=f
mol_smiles=CC(C)C[C@@H]1NC(=O)c2ccc(-c3ccc(N4CCN(C(=O)CCOCCOCCOCCOCCOCCOCCOCCOCCOCCOCCC(=O)N5CCN(c6ccc(-c7ccc8cc7CNC(=O)[C@@H]7CCCN7[C@H](C(=O)NC(C)(C)C)[C@H](C)NC(=O)[C@H]([C@@H](C)O)NC(=O)[C@H](CC(=O)O)NC(=O)[C@H](CC(C)C)NC8=O)cc6)CC5)CC4)cc3)c(c2)CNC(=O)[C@@H]2CCCN2[C@H](C(=O)NC(C)(C)C)[C@H](C)NC(=O)[C@H]([C@@H](C)O)NC(=O)[C@H](CC(=O)O)NC1=O assigned_label=f
mol_smiles=CC(C)C[C@@H]1NC(=O)c2ccc(-c3ccc(N4CCN(Cc5cccc(CN6CCN(c7ccc(-c8ccc9cc8CNC(=O)[C@@H]8CCCN8[C@H](C(=O)NC(C)(C)C)[C@H](C)NC(=O)[C@H]([C@@H](C)O)NC(=O)[C@H](CC(=O)O)NC(=O)[C@H](CC(C)C)NC9=O)cc7)CC6)c5)CC4)cc3)c(c2)CNC(=O)[C@@H]2CCCN2[C@H](C(=O)NC(C)(C)C)[C@H](C)NC(=O)[C@H]([C@@H](C)O)NC(=O)[C@H](CC(=O)O)NC1=O assigned_label=t
mol_smiles=CC(C)C[C@@H]1NC(=O)c2ccc(-c3ccc(N4CCN(C(=O)CCOCCOCCNC(=O)COCC(=O)NCCOCCOCCC(=O)N5CCN(c6ccc(-c7ccc8cc7CNC(=O)[C@@H]7CCCN7[C@H](C(=O)NC(C)(C)C)[C@H](C)NC(=O)[C@H]([C@@H](C)O)NC(=O)[C@H](CC(=O)O)NC(=O)[C@H](CC(C)C)NC8=O)cc6)CC5)CC4)cc3)c(c2)CNC(=O)[C@@H]2CCCN2[C@H](C(=O)NC(C)(C)C)[C@H](C)NC(=O)[C@H]([C@@H](C)O)NC(=O)[C@H](CC(=O)O)NC1=O assigned_label=f
mol_smiles=CC(C)C[C@@H]1NC(=O)c2ccc(-c3ccc(N4CCN(C(=O)c5nccnc5C(=O)N5CCN(c6ccc(-c7ccc8cc7CNC(=O)[C@@H]7CCCN7[C@H](C(=O)NC(C)(C)C)[C@H](C)NC(=O)[C@H]([C@@H](C)O)NC(=O)[C@H](CC(=O)O)NC(=O)[C@H](CC(C)C)NC8=O)cc6)CC5)CC4)cc3)c(c2)CNC(=O)[C@@H]2CCCN2[C@H](C(=O)NC(C)(C)C)[C@H](C)NC(=O)[C@H]([C@@H](C)O)NC(=O)[C@H](CC(=O)O)NC1=O assigned_label=t
mol_smiles=CC(C)C[C@@H]1NC(=O)c2ccc(-c3ccc(N4CCN(C(=O)C[C@@H](N)C(=O)N5CCN(c6ccc(-c7ccc8cc7CNC(=O)[C@@H]7CCCN7[C@H](C(=O)NC(C)(C)C)[C@H](C)NC(=O)[C@H]([C@@H](C)O)NC(=O)[C@H](CC(=O)O)NC(=O)[C@H](CC(C)C)NC8=O)cc6)CC5)CC4)cc3)c(c2)CNC(=O)[C@@H]2CCCN2[C@H](C(=O)NC(C)(C)C)[C@H](C)NC(=O)[C@H]([C@@H](C)O)NC(=O)[C@H](CC(=O)O)NC1=O assigned_label=f
mol_smiles=CC(C)C[C@@H]1NC(=O)c2ccc(-c3ccc(N4CCN(C(=O)CCOCCOCCNC(=O)CCCCCC(=O)NCCOCCOCCC(=O)N5CCN(c6ccc(-c7ccc8cc7CNC(=O)[C@@H]7CCCN7[C@H](C(=O)NC(C)(C)C)[C@H](C)NC(=O)[C@H]([C@@H](C)O)NC(=O)[C@H](CC(=O)O)NC(=O)[C@H](CC(C)C)NC8=O)cc6)CC5)CC4)cc3)c(c2)CNC(=O)[C@@H]2CCCN2[C@H](C(=O)NC(C)(C)C)[C@H](C)NC(=O)[C@H]([C@@H](C)O)NC(=O)[C@H](CC(=O)O)NC1=O assigned_label=f
